# assayed target: T1, recombinant human CD3ε-CD3δ heterodimeric protein (CD3εδ) (Homo sapiens)
# T1 construct: human CD3ε of the recombinant CD3εδ heterodimer; human CD3δ of the recombinant CD3εδ heterodimer; source: in-house prepared
# T1 chain 1: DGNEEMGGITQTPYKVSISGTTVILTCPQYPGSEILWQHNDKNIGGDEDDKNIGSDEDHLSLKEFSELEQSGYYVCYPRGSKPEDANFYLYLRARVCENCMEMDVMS
# T1 chain 2: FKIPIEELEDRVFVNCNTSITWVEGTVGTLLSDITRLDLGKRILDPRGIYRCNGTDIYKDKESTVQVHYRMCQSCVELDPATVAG
# test protocol: SPR; Biacore T200, 37 °C, pH 7.4, PB-P+; antibody captured (630 RU) by anti-mouse IgG (Fc) antibody on a CM4 chip; human CD3εδ as analyte, 1.2-4800 nmol/L; 1:1 binding model (mUCHT1, mSP34)
# measurement setup: both partners purified
measurement type: Kd (nM)
Your answer should be a plain number; it is taken to be in nM.

| binder | unit of measure | value reported |
| --- | --- | --- |
| mSP34 mIgG2a, homodimeric antibody without FAST-Ig mutations (antibody, V domains shown, VH of the original mouse antibody mSP34; mouse IgG2a (mIgG2a) heavy chain constant region; numbers count on: Eu numbering; VL (lambda) of the original mouse antibody mSP34; mouse lambda light chain constant region (CL); Whole IgG of one HC and one LC; also called anti-CD3; H2L2H2L2; source: Expi293F, transiently expressed, purified (Ab-Capcher MAG2, MonoSpin ProA or MonoSpin ProG); copies: 2 + 2) VH: EVQLVESGGGLVQPKGSLKLSCAASGFTFNTYAMNWVRQAPGKGLEWVARIRSKYNNYATYYADSVKDRFTISRDDSQSILYLQMNNLKTEDTAMYYCVRHGNFGNSYVSWFAYWGQGTLVTVSA VL: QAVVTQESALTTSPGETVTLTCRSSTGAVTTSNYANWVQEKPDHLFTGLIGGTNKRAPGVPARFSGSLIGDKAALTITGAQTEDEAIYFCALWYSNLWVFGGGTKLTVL | nM | 16 |

--- query ---
Input: // Kd lookup, key: mSP34 mIgG1, homodimeric antibody without FAST-Ig mutations (antibody, V domains shown, VH of the original mouse antibody mSP34; mouse IgG1 (mIgG1) heavy chain constant region; numbers count on: Eu numbering; VL (lambda) of the original mouse antibody mSP34; mouse lambda light chain constant region (CL); Whole IgG of one HC and one LC; also called anti-CD3; H2L2H2L2; source: Expi293F, transiently expressed, purified (Ab-Capcher MAG2 or MonoSpin ProG); copies: 2 + 2) VH: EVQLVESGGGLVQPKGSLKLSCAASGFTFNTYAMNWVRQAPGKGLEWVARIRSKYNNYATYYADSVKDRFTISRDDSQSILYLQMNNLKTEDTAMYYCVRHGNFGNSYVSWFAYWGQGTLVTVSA VL: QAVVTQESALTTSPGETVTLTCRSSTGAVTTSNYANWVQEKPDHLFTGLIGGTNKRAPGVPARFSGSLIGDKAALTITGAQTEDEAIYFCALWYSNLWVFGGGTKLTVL
Output: 20.9

Values from paper PMC10801562
